// kon lookup, one value per entry
Target: T1, cynomolgus monkey B7-H4 (recombinant, BLI) (cynomolgus monkey, UniProt Q7Z7D3 25-259 (human entry))
T1 construct: also called Cynomolgus B7-H4
T1 sequence: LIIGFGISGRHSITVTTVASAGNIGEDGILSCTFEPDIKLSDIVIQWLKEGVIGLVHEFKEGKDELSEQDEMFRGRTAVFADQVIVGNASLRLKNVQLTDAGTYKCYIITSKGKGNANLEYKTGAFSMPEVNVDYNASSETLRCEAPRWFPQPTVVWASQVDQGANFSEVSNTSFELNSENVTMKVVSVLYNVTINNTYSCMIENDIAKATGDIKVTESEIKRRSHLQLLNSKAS
Test: BLI, antigen on Protein A tips;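 note: Anti-B7-H4 antibodies assessed for affinity toward the B7-H4 extracellular domain using biolayer interferometry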
Write the number in M⁻¹ s⁻¹ without appending the unit.

Some solved entries appear below for comparison.
Binder	kon (M⁻¹ s⁻¹)
B7-H4 antibody 20506 (antibody, V domains shown, human IgG1/kappa) VH: QLQLQESGPGLVKPSETLSLTCTASGGSISHGGYYWSWIRQHPGKGLEWIGNIYYSGSTYYNPSLKSRVTMSVDTSKNQFSLKLSSVTAADTAVYYCARESSTISADFDLWGRGTLVTVSS VL: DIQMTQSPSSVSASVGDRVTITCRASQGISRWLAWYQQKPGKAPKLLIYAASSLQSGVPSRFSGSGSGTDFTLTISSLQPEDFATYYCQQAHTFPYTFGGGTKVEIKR	458000
B7-H4 antibody 20496 (antibody, human IgG1, kappa, V domains shown, human IgG1/kappa) VH: QLQLQESGPGLVKPSETLSLTCTVSGGSISSSVYYWSWIRQPPGKGLEWIGSILVSGSTYYNPSLKSRVTISVDTSKNQFSLKLSSVTAADTAVYYCARAVSFLDVWGQGTMVIVSS VL: DIQMTQSPSSLSASVGDRVTITCRASQSISSYLNWYQQKPGKAPKLLIYGASSLQSGVPSRFSGSGSGTDFTLTISSLQPEDFATYYCQQSYDPPWTFGGGTKVEIKR	790000
B7-H4 antibody 15461 (antibody, human IgG1, kappa, V domains shown, human IgG1/kappa) VH: QLQLQESGPGLVKPSETLSLTCTVSGGSISSSSYYWGWIRQPPGKGLEWIGNIYYSGSTYYNPSLKSRVTISVDTSKNQFSLKLSSVTAADTAVYYCAREGSYPNWFDPWGQGTLVTVSS VL: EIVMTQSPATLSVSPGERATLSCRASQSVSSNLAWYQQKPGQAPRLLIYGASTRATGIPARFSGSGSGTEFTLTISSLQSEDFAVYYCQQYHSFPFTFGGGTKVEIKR	434000
B7-H4 antibody 20500 (antibody, human IgG1, kappa, V domains shown, human IgG1/kappa) VH: QLQLQESGPGLVKPSETLSLTCTVSGGSIKSGSHYWGWIRQPPGKGLEWIGNIYYSGSTYYNPSLRSRVTISVDTSKNQFSLKLSSVTAADTAVYYCAREGSYPNWFDPWGQGTLVTVSS VL: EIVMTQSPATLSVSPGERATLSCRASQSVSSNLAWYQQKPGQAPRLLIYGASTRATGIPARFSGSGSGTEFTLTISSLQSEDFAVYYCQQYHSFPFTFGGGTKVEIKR	418000
B7-H4 antibody 22208 (antibody, human IgG1, kappa, V domains shown, human IgG1/kappa) VH: QLQLQESGPGLVKPSETLSLTCTVSGGSIKSGSHYWGWIRQPPGKGLEWIGNIYYSGSTYYNPSLKSRVTMSVDTSKNQFSLKLSSVTAADTAVYYCAREGSYPNWFDPWGQGTLVTVSS VL: EIVMTQSPATLSVSPGERATLSCRASQSVSTNLAWYQQKPGQAPRLLIYDASARVTGIPARFSGSGSGTEFTLTISSLQSEDFAVYYCQQYHSFPFTFGGGTKVEIKR	199000
B7-H4 antibody 22216 (antibody, human IgG1, kappa, V domains shown, human IgG1/kappa) VH: QVQLQESGPGLVKPSQTLSLTCTVSGGSISDGSYYWSWIRQHPGKGLEWIGNIYYSGSTYYNPSLRSRVTMSVDTSKNQFSLKLSSVTAADTAVYYCARGLSTIDEAFDPWGQGTLVTVSS VL: DIQMTQSPSTLSASVGDRVTITCRASKSISSWLAWYQQKPGKAPKLLIYEASSLHSGVPSRFSGSGSGTEFTLTISSLQPDDFATYYCQQDNSYPYTFGGGTKVEIKR	245000

kon measured on B7-H4 antibody 15465 (antibody, human IgG1, kappa, V domains shown, human IgG1/kappa) VH: QVQLQESGPGLVKPSQTLSLTCTVSGGSISSGGYYWSWIRQHPGKGLEWIGNIYYSGSTYYNPSLKSRVTISVDTSKNQFSLKLSSVTAADTAVYYCARESSTISADFDLWGRGTLVTVSS VL: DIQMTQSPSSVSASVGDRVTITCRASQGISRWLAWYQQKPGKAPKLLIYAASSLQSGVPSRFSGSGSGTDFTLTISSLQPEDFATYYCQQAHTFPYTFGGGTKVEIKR = 544000

kon measured on B7-H4 antibody 20501 (antibody, human IgG1, kappa, V domains shown, human IgG1/kappa) VH: QLQLQESGPGLVKPSETLSLTCTVSGGSIKSGSHYWGWIRQPPGKGLEWIGNIYYSGSTYYNPSLKSRVTISVDTSKNQFSLKLSSVTAADTAVYYCAREGSYPNWLDPWGQGTLVTVSS VL: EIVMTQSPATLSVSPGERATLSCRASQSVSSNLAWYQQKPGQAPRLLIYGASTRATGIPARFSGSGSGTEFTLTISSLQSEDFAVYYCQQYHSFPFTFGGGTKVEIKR = 1.02e+06

kon measured on B7-H4 antibody 15495 (antibody, human IgG1, kappa, V domains shown, human IgG1/kappa) VH: QVQLVQSGAEVKKPGSSVKVSCKASGGTFSSYAISWVRQAPGQGLEWMGGIIPIFGTASYAQKFQGRVTITADESTSTAYMELSSLRSEDTAVYYCARQQYDGRRYFGLWGRGTLVTVSS VL: EIVMTQSPATLSVSPGERATLSCRASQSVSSNLAWYQQKPGQAPRLLIYSASTRATGIPARFSGSGSGTEFTLTISSLQSEDFAVYYCQQVNVWPPTFGGGTKVEIKR = 3.25e+06
